testProtocol: Pharmacokinetics in SD rats, intravenous injection or intragastric administration
Assay type: in vivo
runConditions: male, Sprague-Dawley, rat, plasma, oral (mg/kg), dose figure not given, versus injection (1 mg/kg), read-out: bioavailability F
propertyLabel: bioavailability (%)
Number in %, nothing else.

INSERT INTO results (compound, propertylabel, datavalue) VALUES
  ('COc1ccc2c(c1OCc1ccccc1)C[C@@H](C(=O)O)N(C(=O)C(c1ccccc1)c1ccccc1)C2 [olodanrigan, reference compound]', 'bioavailability', 12.1);

For the next question, use this compound.
What does the data say about its bioavailability? Entry: N#Cc1ccc2nc(-c3cnc(N4CCCOc5ccc(F)cc54)cc3C(=O)O)oc2c1 [Compound 16]
41.3

Source of measurements: patent US12559449B2
